tested target: human epidermal growth factor receptor 2 (Homo sapiens, UniProt P04626)
measurement description: SPR
Assign labels as follows, please: met for koff below 0.001 s⁻¹; not met for koff equal to or exceeding 0.001 s⁻¹.

binder: hu2C4-g3.1 IgG1 (antibody, V domains shown) VH: EVQLVESGGGLVQPGGSLRLSCAASGFTFTDYTMDWVRQAPGKGLEWVADVNPNSGGSIYNQRFKGRFTLSVDRSKNTLYLQMNSLRAEDTAVYYCARLMSYGYFDYWGQGTLVTVSS VL: DIQMTQSPSSLSASVGDRVTITCKASQDVSIGVAWYQQKPGKAPKLLIYSASYRYTGVPSRFSGSGSGTDFTLTISSLQPEDFATYYCQQYYIYPYTFGQGTKVEIK
answer label: met

Quick check: does hu2C4-g1.1 IgG1 (antibody, V domains shown) VH: EVQLVESGGGLVQPGGSLRLSCAASGFTFTDYTMDWVRQAPGKGLEWVADVNPNSGGSIYNQRFKGRFTLSVDRSKNTLYLQMNSLRAEDTAVYYCARAIAGGVLLDYWGQGTLVTVSS VL: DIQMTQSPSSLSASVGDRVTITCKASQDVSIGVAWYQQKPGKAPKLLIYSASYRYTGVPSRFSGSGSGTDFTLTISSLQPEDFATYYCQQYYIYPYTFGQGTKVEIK have koff under 0.001 s⁻¹? not met

Quick check: does hu2C4-g3.2 IgG1 (antibody, V domains shown) VH: EVQLVESGGGLVQPGGSLRLSCAASGFTFTDYTMDWVRQAPGKGLEWVADVNPNSGGSIYNQRFKGRFTLSVDRSKNTLYLQMNSLRAEDTAVYYCARLLAYGYLDYWGQGTLVTVSS VL: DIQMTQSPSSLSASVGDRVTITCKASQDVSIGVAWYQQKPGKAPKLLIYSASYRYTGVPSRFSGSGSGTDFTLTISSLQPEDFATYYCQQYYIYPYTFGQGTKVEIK have koff under 0.001 s⁻¹? met
